target: Replicase polyprotein 1a (Severe acute respiratory syndrome-related coronavirus) (UniProt P0C6U8); test: Inhibition of Mpro in SARS-CoV at 100 uM in FRET-based assay
The reader will find reported inhibition values listed item by item below.
value_kind: inhibition (%)

{"molecule": "COC(=O)C1CN1[C@@H](CCSC)C(=O)OC (stereo partly specified)", "value_kind": "inhibition", "units_of_measure": "%", "assay_result": 28}
{"molecule": "COC(=O)C1CN1[C@H](C(=O)OCc1ccccc1)C(C)C (stereo partly specified)", "value_kind": "inhibition", "units_of_measure": "%", "assay_result": 20}
{"molecule": "CC(C)[C@H](NC(=O)[C@@H]1O[C@@H]1C)C(=O)OCc1ccccc1", "value_kind": "inhibition", "units_of_measure": "%", "assay_result": 10}
{"molecule": "CCOC(=O)[C@H]1[C@H](C(=O)OCC)N1C(=O)[C@@H]1CCCN1C(=O)[C@H](CC(C)C)NC(=O)OC(C)(C)C", "value_kind": "inhibition", "units_of_measure": "%", "assay_result": 16}
{"molecule": "CCOC(=O)[C@H]1[C@H](C(=O)OCC)N1C(=O)[C@@H](NC(=O)OC(C)(C)C)C(C(C)C)N1CCC1 (stereo partly specified)", "value_kind": "inhibition", "units_of_measure": "%", "assay_result": 16}
{"molecule": "CC(C)(C)OC(=O)N[C@H](C(=O)N1[C@H](C(=O)OCc2ccccc2)[C@H]1C(=O)OCc1ccccc1)N1CCCCC1", "value_kind": "inhibition", "units_of_measure": "%", "assay_result": 29}
